# experimental.system: UniProtKB P12931
# Sequence (P12931 2-536 limits assumed): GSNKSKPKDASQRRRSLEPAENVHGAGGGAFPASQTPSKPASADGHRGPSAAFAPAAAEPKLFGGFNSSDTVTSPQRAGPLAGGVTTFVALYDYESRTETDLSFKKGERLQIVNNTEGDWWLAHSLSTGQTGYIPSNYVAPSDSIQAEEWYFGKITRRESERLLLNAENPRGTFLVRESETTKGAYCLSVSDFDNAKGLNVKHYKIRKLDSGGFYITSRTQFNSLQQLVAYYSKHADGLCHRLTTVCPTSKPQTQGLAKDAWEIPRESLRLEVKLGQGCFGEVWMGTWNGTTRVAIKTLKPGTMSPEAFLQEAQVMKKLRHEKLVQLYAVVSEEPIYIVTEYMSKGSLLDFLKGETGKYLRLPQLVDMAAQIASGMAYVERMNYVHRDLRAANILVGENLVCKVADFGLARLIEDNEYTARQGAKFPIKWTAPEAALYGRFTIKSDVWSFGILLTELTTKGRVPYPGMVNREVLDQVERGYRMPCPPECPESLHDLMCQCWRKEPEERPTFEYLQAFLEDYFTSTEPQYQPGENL
measure.name: IC50 (µM)
Response body: numeric value in µM, unit text excluded.

-- ask I'd like to know its IC50. The molecule in question is N#Cc1cnc2cc(/C=C/c3ccncc3)ccc2c1NCc1cc(Cl)cc(Cl)c1
-- reply 1
